Tested on: SF-268 CNS
Test Summary: NCI-60 one-dose screen, 48 h (100 = growth as untreated, 0 = no growth, -100 = all killed)
Condition Details: 10 µM unless noted
Compounds without any hit were thinned out: in the full panel of roughly 83,000, 20% have a hit.
Label class 1 when growth is at or above 80%; anything below gets class 0.

Solved entries:
Does growth meet or surpass 80% for COc1ccc(C(=O)NC(=O)Nc2ccc3c(c2)NC(=O)/C3=C\c2[nH]c(C)c(C(=O)O)c2C)c(F)c1 ?
class 0

Is the recorded value of growth equal to or greater than 80% for this compound? COc1cc(C(=O)NNC(=O)c2ccccc2C(=O)O)cc(OC)c1OC
class 0

Does growth meet or surpass 80% for O=c1c2ccccc2[nH]n1Cc1ccc2c(c1)OCO2 ?
class 1

Decide: growth of Nc1nccc2c1ccn2-c1ccc(NC(=O)c2ccc(N3CCOCC3)c(C(F)(F)F)c2)cc1 >= 80%?
class 0

New cases:
Check this compound for growth at or above 80%: COc1ccc(-c2nn(-c3ccc(NC(=O)c4cc(Cl)cc(Cl)c4)cc3)cc2-c2ccncc2)cc1Cl
class 0

Has Nc1nccc(=S)[nH]1 a recorded growth greater than or equal to 80%?
class 1

Quick check: does CCCC(=O)Oc1ccc(/C(=C(\C)c2ccc(OC)cc2)c2ccc(OCCN3CCCCC3)cc2)cc1 have growth greater than or equal to 80%?
class 1

----------
Test system: HT29 colon
Test Summary: NCI-60 one-dose screen, 48 h (100 = growth as untreated, 0 = no growth, -100 = all killed)
Condition Details: 10 µM unless noted
About 83,000 compounds went through this panel and 20% of them were active in at least one assay; those are over-represented in the sample as a whole.
Quick rule for you: growth under 60% gets yes (1), anything else gets no (0).

Item COC(=O)c1oc2c(C(=O)/C=C/c3ccc(OC)cc3)c(OCCN3CCOCC3)ccc2c1C : growth beneath 60%, strictly?
yes (1)

----------
Test system: HCT-15 colon
Test Summary: NCI-60 one-dose screen, 48 h (100 = growth as untreated, 0 = no growth, -100 = all killed)
Condition Details: 10 µM unless noted
This is part of a sample that, as a whole, favours compounds with a hit. Of some 83,000 tested, about 20% had one in any assay.
The following molecules are shown together with reported growth values.
The response must be a number in % with no trailing unit.

For HCT-15 colon, provide growth of COc1ccc(NC(=O)COCCOCCNC[C@@H]2C(=O)O[C@H]3[C@H]2CC/C(COC(=O)OC/C2=C/CC[C@@]4(C)O[C@H]4[C@H]4OC(=O)[C@@H](CN(C)C)[C@@H]4CC2)=C\CC[C@@]2(C)O[C@@H]32)c(O)c1C(N)=O please.
17.1

Short answer please: growth, HCT-15 colon, entry O=[N+]([O-])c1ccc(NS(=O)(=O)c2ccccc2)c2ccccc12
46.8

Reported growth for HCT-15 colon, given CCNc1cc(S(=O)(=O)O)ccc1C ?
105

Record lookup: for HCT-15 colon, what growth belongs to C#C[C@H](O)/C=C/CCCCCCC#C[C@H](O)CC[C@@H](O)C#CCCCCCC/C=C/[C@@H](O)C#C ?
80.4

Identify the measured growth of Cc1cccc[n+]1CCC[n+]1ccccc1C for HCT-15 colon.
96.7

Lab note: need growth with HCT-15 colon for entry Cc1cc(O[C@@H]2O[C@@H](C)[C@H](O)[C@@H](O)[C@H]2O)c2c3c(c(O[C@@H]4O[C@@H](C)[C@H](O)[C@@H](O)[C@H]4O)cc2c1)C(=O)c1c(O)cccc1C3=O , please look it up.
87.9

Further cases:
Lab request: please report growth under test system HCT-15 colon for COc1ccc(C[C@H](N)C(=O)N[C@@H]2[C@@H](CO)OC(n3cnc4c(N(C)C)ncnc43)[C@@H]2O)cc1 (stereo partly drawn)
71.6

API: value(readout=growth, system=HCT-15 colon) for record CCc1cccc(-c2ccccc2)c1
103
